biological target: eIF4E (Homo sapiens); construct: His; purchased Cayman Chemical Inc 25150; assay: eIF4E electrophoretic mobility shift assay (EMSA); assay type: binding; conditions: AF647-labeled capped oligos, read-out: eIF4E dissociation constant (Kd)
Sequence (P06730 whole entry): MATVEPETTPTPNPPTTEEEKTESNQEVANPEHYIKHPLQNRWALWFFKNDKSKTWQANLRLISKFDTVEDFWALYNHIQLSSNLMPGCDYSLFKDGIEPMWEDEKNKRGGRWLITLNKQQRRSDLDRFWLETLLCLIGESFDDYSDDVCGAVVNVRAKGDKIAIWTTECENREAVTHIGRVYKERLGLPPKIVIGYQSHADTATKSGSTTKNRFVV
measured.property: pKd
Numbers only, as −log10 of the molar value.

Specify measured pKd for construct 42: dual LNAm7G-capped; /5Phos/rArGrArGrArUrArA/3AzideN/ clicked to /5Phos/rArGrArUrArArA/i5OCTdU/rArArArArArA (SEQ ID NO: 120) (AGATAAATAAAAAA; dual LNA-m7G caps via click branch; modified_base 1 OTHER; 5'-phosphate modified nucleotide; modified_base 8 OTHER; 5-Octadiynyl modified uracil; misc_feature 1..7 RNA; misc_feature 8 DNA; misc_feature 9..14 RNA) . 5.89

----------
Hi there, I'd appreciate the recorded pKd for every entry that follows.
molecular target: eIF4E (Homo sapiens); construct: His; purchased Cayman Chemical Inc 25150; assay: eIF4E electrophoretic mobility shift assay (EMSA); assay type: binding; conditions: AF647-labeled capped oligos, read-out: eIF4E dissociation constant (Kd)
Strand notation (5' to 3'): a small letter for the sugar, then the base; units joined by * are phosphorothioate-linked, units joined directly phosphodiester-linked; [ ] holds rarer units or linkages, { } end groups; capitals alone tell only the bases. l = locked nucleic acid (LNA); m = 2'-O-methyl; r = 2'-OH (RNA); {P} = phosphate
Answers are plain numbers, as −log10 of the molar value.

Previously resolved entries follow.
substance	measured.result
construct 24: LNAm7G cap; /5Phos/mAmGmAmGmAmArUrArArArArA (SEQ ID NO: 25) ({P}-mAmGmAmGmAmArUrArArArArA; LNA-modified m7G cap on the 5'-phosphate)	5.80
construct 22: LNAm7G cap; /5Phos/+ArGrArGrArArUrArArArArA (SEQ ID NO: 23) ({P}-lArGrArGrArArUrArArArArA; LNA-modified m7G cap on the 5'-phosphate)	5.85

Please find the next substance below.
Specify measured pKd for construct 28: m7G cap; OU handle only; /5Phos/rArGrArUrArArA/i5OCTdU/rArArArArArA (SEQ ID NO: 38) (AGATAAATAAAAAA; m7G cap; internal octyne-dU handle; modified_base 1 OTHER; 5'-phosphate modified nucleotide; modified_base 8 OTHER; 5-Octadiynyl modified uracil; misc_feature 1..7 RNA; misc_feature 8 DNA; misc_feature 9..14 RNA) . 5.65

----------
test system: HeLa cells; assay: Time-course dual luciferase assay of modified Firefly luciferase mRNA (Renilla control); type: cell-based; conditions: HeLa cells; Fluc reporter; result in words
measured.property: Effect of cap/5′ UTR modification on protein production / translation

substance	measured.result
construct 19: ClBn7G cap; /5Phos/rArGrArGrArArUrArArArArA (SEQ ID NO: 20) (AGAGAAUAAAAA; ClBn7G cap, 5' phosphate; modified_base 1 OTHER; 5'-phosphate modified nucleotide)	did not outperform m7G
construct 20: ClBnOEt7G cap; /5Phos/rArGrArGrArArUrArArArArA (SEQ ID NO: 21) (AGAGAAUAAAAA; ClBnOEt7G cap, 5' phosphate; modified_base 1 OTHER; 5'-phosphate modified nucleotide)	did not outperform m7G

----------
molecular target: eIF4E (Homo sapiens); construct: His; purchased Cayman Chemical Inc 25150; experiment: eIF4E electrophoretic mobility shift assay (EMSA); type: binding; settings: AF647-labeled capped oligos, read-out: eIF4E dissociation constant (Kd)
Strand notation (5' to 3'): a small letter for the sugar, then the base; units joined by * are phosphorothioate-linked, units joined directly phosphodiester-linked; [ ] holds rarer units or linkages, { } end groups; capitals alone tell only the bases. [5OctdU] = 5-octadiynyl-2'-deoxyuridine (alkyne click handle); d = 2'-deoxy (DNA); m = 2'-O-methyl; r = 2'-OH (RNA); {P} = phosphate
Hi there, I'd appreciate the recorded Kd for every entry that follows.
Numbers only, in nM.

State the recorded Kd for every item in the following list.
1. construct 15: m7G cap; /5Phos/mAmGmAmGmAmArUrArArArArA (SEQ ID NO: 16) ({P}-mAmGmAmGmAmArUrArArArArA; m7G cap on the 5'-phosphate)
2. construct 31: dual m7G-capped; /5Phos/rArGrArGrArUrArA/3AzideN/ clicked to /5Phos/rArGrArUrArArA/i5OCTdU/rArArArArArA (SEQ ID NO: 42) ({P}-rArGrArUrArArAd[5OctdU]rArArArArArA; m7G cap on 5'-phosphate, second m7G-capped azide oligo clicked at octadiynyl-dU)

[2450, 1410]
